Reference source: ChEMBL document CHEMBL3137386

assay: DNDI: Metabolism; assay type: ADME, 10090, Microsome; details: mouse, microsomes; read-out: EH
Reported metric: hepatic extraction ratio

Supply measured hepatic extraction ratio of O=C(C(c1ccc(Cl)cc1)c1cccnc1)N1CCN(c2ccc(C(F)(F)F)cc2)CC1 (stereo unspecified) in your reply.
0.72

====

Listed next: entries and their corresponding pIC50.
assay: DNDI: Cytotoxicity against L-6 rat myoblasts from skeletal muscle; type: toxicity, cell-based, Muscle tissue, L6; conditions: rat, L6 rat skeletal muscle myoblasts
# pIC50 is unitless: minus log10 of the molar concentration; print number only

{"Compound": "O=C(C(c1ccc(Cl)cc1)c1cncnc1)N1CCN(c2ccc(C(F)(F)F)cn2)CC1 (centres undefined)", "pIC50": 4.28}
{"Compound": "O=C(C(c1ccc(Cl)cc1)c1cccnc1)N1CCN(c2ccc(C(F)(F)F)cn2)CC1 (centres undefined)", "pIC50": 4.24}
{"Compound": "N#Cc1ccc(C(C(=O)N2CCN(c3ccc(C(F)(F)F)cc3)CC2)c2cccnc2)cc1 (centres undefined)", "pIC50": 4.13}

Okay, now this compound:
Name the recorded pIC50 of the item O=C(C(c1ccc(Cl)cc1)c1cccnc1)N1CCN(c2ccc(C(F)(F)F)nc2)CC1 (centres undefined) in your answer.
4.18

====

assay: DNDI: Solubility, 24 hour, FaSSIF, 37C; format: physicochemical; conditions: read-out: Equilibrium
Reported metric: solubility thermodynamic at 24 h
Please make sure the unit comes right after the number.

Query solubility thermodynamic at 24 h for O=C(C(c1ccc(Cl)cc1)c1cccnc1)N1CCN(c2ccc(C(F)(F)F)cc2)CC1 (stereo unspecified)
1.3 µg/mL

====

Measured IC50 by item
biological target: Cytochrome P450 3A4 (Homo sapiens, UniProt P08684); test: DNDI: CYP Inhibition; type: ADME
Sequence (P08684 whole entry): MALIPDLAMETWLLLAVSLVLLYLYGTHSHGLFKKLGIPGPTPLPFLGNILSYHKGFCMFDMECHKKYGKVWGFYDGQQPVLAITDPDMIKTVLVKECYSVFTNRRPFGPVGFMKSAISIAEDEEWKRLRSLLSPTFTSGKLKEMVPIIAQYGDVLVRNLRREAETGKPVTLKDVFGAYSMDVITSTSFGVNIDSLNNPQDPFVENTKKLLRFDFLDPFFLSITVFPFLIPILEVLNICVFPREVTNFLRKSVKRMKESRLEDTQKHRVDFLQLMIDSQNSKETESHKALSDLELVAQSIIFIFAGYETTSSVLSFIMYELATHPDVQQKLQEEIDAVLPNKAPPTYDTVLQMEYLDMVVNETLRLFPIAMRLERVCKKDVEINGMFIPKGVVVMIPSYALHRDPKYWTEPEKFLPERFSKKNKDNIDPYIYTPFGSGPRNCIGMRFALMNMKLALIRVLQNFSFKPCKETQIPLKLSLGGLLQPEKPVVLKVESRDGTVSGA
Please reply with the bare figure in µM and do not write the unit itself.

Some solved cases for reference:
{"Compound": "O=C(C(c1ccc(Cl)cc1)c1cccnc1)N1CCN(c2ccc(C(F)(F)F)nc2)CC1 (centres undefined)", "Measurement target": "Cytochrome P450 3A4 (Homo sapiens, UniProt P08684)", "IC50 (µM)": 20}
{"Compound": "O=C(C(c1ccc(Cl)cc1)c1cccnc1)N1CCN(c2ccc(C(F)(F)F)cn2)CC1 (centres undefined)", "Measurement target": "Cytochrome P450 3A4 (Homo sapiens, UniProt P08684)", "IC50 (µM)": 6.6}
{"Compound": "O=C(C(c1ccc(Cl)cc1)c1cccnc1)N1CCN(c2ccc(C(F)(F)F)cc2)CC1 (centres undefined)", "Measurement target": "Cytochrome P450 3A4 (Homo sapiens, UniProt P08684)", "IC50 (µM)": 20}

Give me measured IC50, please, for this compound: CS(=O)(=O)c1ccc(N2CCN(C(=O)C(c3ccc(Cl)cc3)c3cccnc3)CC2)cc1 (centres undefined)
7.1

====

test: DNDI: Solubility, 24 hour, Isotonic phos buffer - pH 2; assay type: physicochemical; details: isotonic phosphate buffer, read-out: Equilibrium
Reported metric: solubility thermodynamic at 24 h

Specify measured solubility thermodynamic at 24 h for O=C(C(c1ccc(Cl)cc1)c1cccnc1)N1CCN(c2ccc(C(F)(F)F)cc2)CC1 (stereo unspecified) .
< 1 µg/mL

====

assay: DNDI: Solubility, 24 hour, FaSSIF, 37C; type: physicochemical; settings: read-out: Equilibrium
Reported metric: solubility thermodynamic at 24 h (mg/mL)
Entry rule: numbers only, all in mg/mL.

For the compound O=C(C(c1ccc(Cl)cc1)c1cccnc1)N1CCN(c2ccc(C(F)(F)F)cc2)CC1 (stereo unspecified) , give its reported solubility thermodynamic at 24 h.
0.0759
